# Test description: Compound levels in plasma and brain by LC-MS-MS
# Test settings: female, FVB/N, mouse, brain, po, 30 mg/kg

# Line notation, concentration at 3 h
records = [
    ("O=C1NCCCC[C@H]1N(Cc1ccc(Br)cc1)S(=O)(=O)c1ccc(Cl)cc1", "754 nM"),
]

----------
# Test description: Compound levels in plasma and brain by LC-MS-MS
# Test settings: female, FVB, mouse, in vivo, 15 mg/kg

# Compound, concentration at 3 h, nM
records = [
    ("O=S(=O)(c1ccc(Cl)cc1)N1C2CCCC1c1cn[nH]c1C2 (stereo not shown) [ELN475516]", 187),
]

----------
# Test description: Compound levels in plasma and brain by LC-MS-MS
# Test settings: female, FVB/N, mouse, brain, po, 100 mg/kg
Measured endpoint: concentration at 3 h (nM)

# Compound, Reported value
records = [
    ("O=C1NCCCC[C@H]1N(Cc1ccc(Br)cc1)S(=O)(=O)c1ccc(Cl)cc1 [ELN318463]", 2700),
]

----------
# Test description: Oral bioavailability in rat
# Test settings: in vivo, read-out: oral bioavailability F
Measured endpoint: bioavailability (%)

# Line notation, Measured endpoint, Unit spec, Reported value
measured = [
    ("O=C1NCCCC[C@H]1N(Cc1ccc(Br)cc1)S(=O)(=O)c1ccc(Cl)cc1", "bioavailability", "%", 30),
]

----------
# Test description: Compound levels in plasma and brain by LC-MS-MS
# Test settings: female, FVB, mouse, in vivo, 1000 mg/kg/dose
Measured endpoint: concentration at 3 h (µM)

# Molecule, Unit spec, Reported value
data = [
    ("O=S(=O)(c1ccc(Cl)cc1)N1C2CCCC1c1cn[nH]c1C2 (stereo not shown)", "µM", 12.3),
]

----------
# Test system: Aβ production in SNC cells (CHO APPSw)
# Test description: SNC dual cell assay, secreted Aβ1-x ELISA
# Test settings: Cricetulus griseus, read-out: SNC Aβ EC50

# Molecule, Target desc, Unit spec, EC50
rows = [
    ("O=S(=O)(c1ccc(Cl)cc1)N1C2CCCC1c1cn[nH]c1C2 (stereo not shown)", "Aβ production in SNC cells (CHO APPSw)", "µM", 0.00873),
    ("O=C1NCCCC[C@H]1N(Cc1ccc(Br)cc1)S(=O)(=O)c1ccc(Cl)cc1", "Aβ production in SNC cells (CHO APPSw)", "µM", 0.0234),
    ("CC(C)C[C@H](NC(=O)[C@H](Cc1ccccc1)C[C@@H](O)[C@H](Cc1ccccc1)NC(=O)OC(C)(C)C)C(=O)N[C@@H](Cc1ccccc1)C(N)=O", "Aβ production in SNC cells (CHO APPSw)", "µM", 0.0132),
    ("C[C@H](NC(=O)[C@@H](O)c1cc(F)cc(F)c1)C(=O)N[C@@H]1C(=O)N(C)c2ccccc2-c2ccccc21 [LY411575, reference compound]", "Aβ production in SNC cells (CHO APPSw)", "µM", 0.000116),
]

----------
# Test description: Compound levels in plasma and brain by LC-MS-MS
# Test settings: PDAPP, mouse, brain, po, 30 mg/kg
Measured endpoint: concentration at 3 h (nM)

# Compound, Measured endpoint, Reported value
data = [
    ("O=C1NCCCC[C@H]1N(Cc1ccc(Br)cc1)S(=O)(=O)c1ccc(Cl)cc1 [ELN318463]", "concentration at 3 h", 690),
]
